Answer each item with its documented Activity.
Species on record: Cavia porcellus
Assay: Activity at L type calcium channel in K+ depolarized guinea pig longitudinal smooth muscle assessed as inhibition of calcium induced contraction at 10 uM
Parameters: scale not given: the % may be the effect or the level left
Give bare numbers, in %.

Go through the list and state Activity for each entry.
1. COC(=O)C1=C(C)NC(C)=C(C(=O)OC)C1c1c(Cl)nc2sc(C)cn12
2. COC(=O)C1=C(C)NC(C)=C(C(=O)OC)C1c1c(-c2ccccc2C(F)(F)F)nc2sccn12
3. COC(=O)C1=C(C)NC(C)=C(C(=O)OC)C1c1c(-c2cc(OC)c([N+](=O)[O-])cc2OC)nc2sccn12
4. COC(=O)C1=C(C)NC(C)=C(C(=O)OC)C1c1c(-c2cc(OC)ccc2OC)nc2sccn12

1. 93
2. 92
3. 97
4. 51

---

Species: Cavia porcellus
Experiment: Chronotropic activity at L type calcium channel in guinea pig right atrium assessed as decrease in spontaneous beating at 100 uM relative to control
Format: tissue-based
Set-up: scale not given: the % may be the effect or the level left
Settings: Cardiac atrium
MEASURE: Activity (%)
Answers are plain numbers, in %.

Check out these entries, answers already filled in.
{"INPUT SMILES": "COC(=O)C1=C(C)NC(C)=C(C(=O)OC)C1c1c(-c2c(OC)ccc(OC)c2[N+](=O)[O-])nc2sc(Cl)cn12", "U": "%", "OBSERVED VALUE": 64}
{"INPUT SMILES": "COC(=O)C1=C(C)NC(C)=C(C(=O)OC)C1c1c(-c2c(OC)ccc(OC)c2[N+](=O)[O-])nc2sc(C)cn12", "U": "%", "OBSERVED VALUE": 47}
{"INPUT SMILES": "COC(=O)C1=C(C)NC(C)=C(C(=O)OC)C1c1c(-c2cc(OC)ccc2OC)nc2sc(Cl)cn12", "U": "%", "OBSERVED VALUE": 84}
{"INPUT SMILES": "COC(=O)C1=C(C)NC(C)=C(C(=O)OC)C1c1c(-c2c(OC)ccc(OC)c2[N+](=O)[O-])nc2sccn12", "U": "%", "OBSERVED VALUE": 12}

Turning to the following molecule.
Let me know recorded Activity for `COC(=O)C1=C(C)NC(C)=C(C(=O)OC)C1c1c(-c2ccccc2OC)nc2sccn12` , thanks.
95

---

Organism: Cavia porcellus
Experiment: Inotropic activity at L type calcium channel in guinea pig left atrium assessed as decrease in tension at 100 uM relative to control
Format: tissue-based
Set-up: scale not given: the % may be the effect or the level left
Conditions: Cardiac atrium
MEASURE: Activity (%)
Answers are plain numbers, in %.

{"INPUT SMILES": "COC(=O)C1=C(C)NC(C)=C(C(=O)OC)C1c1c(-c2ccccc2)nc2sc(Cl)cn12", "Activity, %": 58}

Go through the list and state Activity for each entry.
1. COC(=O)C1=C(C)NC(C)=C(C(=O)OC)C1c1c(-c2ccccc2)nc2scc(C)n12
2. COC(=O)C1=C(C)NC(C)=C(C(=O)OC)C1c1c(-c2ccc(OC)c(OC)c2)nc2sccn12
3. COC(=O)C1=C(C)NC(C)=C(C(=O)OC)C1c1c(-c2cc(OC)cc(OC)c2)nc2sccn12
4. COC(=O)C1=C(C)NC(C)=C(C(=O)OC)C1c1c(-c2cccc(OC)c2)nc2sccn12
5. COC(=O)C1=C(C)NC(C)=C(C(=O)OC)C1c1c(-c2ccccc2OC)nc2sccn12
6. COC(=O)C1=C(C)NC(C)=C(C(=O)OC)C1c1c(-c2cc(OC)ccc2OC)nc2sc(Cl)cn12

59
61
26
90
54
55

Let me know recorded Activity for `COC(=O)C1=C(C)NC(C)=C(C(=O)OC)C1c1c(-c2ccccc2)nc2sc(C)c(C)n12` , thanks.
76
